Values compiled from BindingDB's records for patent US20250289799.

# SUBJECT_OF_TEST: Ubiquitin carboxyl-terminal hydrolase 1/WD repeat-containing protein 48 (Homo sapiens, UniProt O94782+Q8TAF3)
# Sequence (O94782 whole entry): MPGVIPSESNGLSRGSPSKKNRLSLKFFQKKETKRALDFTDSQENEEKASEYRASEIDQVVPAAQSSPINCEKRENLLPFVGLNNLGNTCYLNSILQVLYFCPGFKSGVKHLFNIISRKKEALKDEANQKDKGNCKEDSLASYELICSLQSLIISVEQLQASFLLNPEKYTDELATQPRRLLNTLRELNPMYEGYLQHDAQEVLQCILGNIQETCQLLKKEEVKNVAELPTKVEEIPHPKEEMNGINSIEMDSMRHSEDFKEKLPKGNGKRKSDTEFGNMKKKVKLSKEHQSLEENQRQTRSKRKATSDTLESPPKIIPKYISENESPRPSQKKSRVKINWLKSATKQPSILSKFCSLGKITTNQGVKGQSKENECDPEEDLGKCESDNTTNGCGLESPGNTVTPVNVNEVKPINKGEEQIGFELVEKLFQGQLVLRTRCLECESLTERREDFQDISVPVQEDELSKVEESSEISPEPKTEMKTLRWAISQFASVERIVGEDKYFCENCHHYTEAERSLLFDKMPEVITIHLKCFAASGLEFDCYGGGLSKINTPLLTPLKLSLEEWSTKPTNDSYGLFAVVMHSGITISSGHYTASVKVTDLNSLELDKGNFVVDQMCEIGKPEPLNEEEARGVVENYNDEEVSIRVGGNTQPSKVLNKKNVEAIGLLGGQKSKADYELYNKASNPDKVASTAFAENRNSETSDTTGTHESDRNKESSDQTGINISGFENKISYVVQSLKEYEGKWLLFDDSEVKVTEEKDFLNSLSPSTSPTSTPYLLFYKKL
# Sequence (Q8TAF3 whole entry): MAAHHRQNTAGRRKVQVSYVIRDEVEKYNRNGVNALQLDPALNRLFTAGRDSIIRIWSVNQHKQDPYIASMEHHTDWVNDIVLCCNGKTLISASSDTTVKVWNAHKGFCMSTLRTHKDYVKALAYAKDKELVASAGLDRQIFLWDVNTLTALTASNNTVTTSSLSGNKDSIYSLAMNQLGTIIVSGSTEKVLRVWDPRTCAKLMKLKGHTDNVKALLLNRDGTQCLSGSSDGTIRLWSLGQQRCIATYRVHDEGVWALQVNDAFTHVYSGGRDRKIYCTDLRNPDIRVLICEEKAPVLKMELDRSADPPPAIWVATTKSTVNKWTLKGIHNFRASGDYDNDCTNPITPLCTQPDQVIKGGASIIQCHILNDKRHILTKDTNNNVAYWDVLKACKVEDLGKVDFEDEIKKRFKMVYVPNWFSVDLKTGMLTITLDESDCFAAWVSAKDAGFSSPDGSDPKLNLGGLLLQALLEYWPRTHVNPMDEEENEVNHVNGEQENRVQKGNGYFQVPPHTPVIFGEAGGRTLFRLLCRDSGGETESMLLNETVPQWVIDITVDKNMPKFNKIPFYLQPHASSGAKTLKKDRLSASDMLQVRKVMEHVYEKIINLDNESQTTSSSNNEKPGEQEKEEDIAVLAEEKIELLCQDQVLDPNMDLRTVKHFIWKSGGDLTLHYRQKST
# TEST_SUMMARY: In Vitro USP1  Inhibitory Activity
PROPERTY_NAME: IC50
Remember to follow the number with its unit.

// query # lookup: IC50 of CC(C)c1ccccc1-c1ncc(N2CCN(C)CC2)c(NCc2ccc(-c3nc(C(F)(F)F)cn3C)cc2)n1 [US20250289799, Example 88]
// result 0.01 µM

// query Report IC50 for COc1cnc(-c2ccccc2C(C)C)nc1NCc1ccc(-n2nc(C(F)(F)F)cc2C)cc1 [US20250289799, Example 7] please.
// result 0.0045 µM

// query Entry COc1cnc(-c2c(OC)ncnc2C2CC2)nc1N(O)Cc1ccc(-c2nc(C(F)(F)F)cn2C)cc1 [US20250289799, Example 204] : reported IC50 = ?
// result 0.025 µM

// query Given the entry COc1cnc(-c2c(Cl)cnn2C(C)C)nc1NCC12CCC(c3nc(C(F)(F)F)cn3C)(CC1)OC2 [US20250289799, Example 209] , report its measured IC50.
// result 0.0016 µM

// query For the molecule COc1cnc(-c2c(C)noc2C(C)C)nc1NCc1ccc(-c2nc(C(F)(F)F)cn2C)cc1 [US20250289799, Example 188] , what IC50 is on record?
// result 0.015 µM

// query Can you share its IC50? I mean this molecule: COc1ncnc(C2CC2)c1-c1nc(NCc2ccc(-c3nc(C(F)F)cn3C)cc2)c2occc2n1 [US20250289799, Example 123]
// result 0.02 µM

// query Endpoint output: IC50 of COc1cc(-c2nc(C(F)(F)F)cn2C)ccc1CNc1nc(-c2ccccc2C2CC2)ncc1OC [US20250289799, Example 171] . Value?
// result 0.0023 µM

// query For the molecule shown here, COc1cnc(-c2c(Cl)cnn2C(C)C)nc1NCc1ccc(-n2nc(C(F)(F)F)cc2C)cc1 [US20250289799, Example 165] , give the reported IC50.
// result 0.0014 µM

// query # IC50 lookup, item COc1cnc(-c2cccnc2C2CC2)nc1N(C)CC1CCN(c2ccccn2)CC1 [US20250289799, Example 151]
// result 0.072 µM

// query Report IC50 for CC(C)c1ccccc1-c1nc(NCc2ccc3c(c2)CCN(C(C)C)C3=O)c2occc2n1 [US20250289799, Example 78] please.
// result 0.0064 µM

// query I am curious: what IC50 value has been reported for c1ccc(-c2ccc(CNc3nc(-c4cccnc4C4CC4)nc4ccoc34)cc2)nc1 [US20250289799, Example 155] ?
// result 0.012 µM

// query Query (molecule): COc1cnc(-c2ccccc2C(C)C)nc1NCc1ccc2c(c1)CN(C1CCC(=O)NC1=O)C2=O (centres undefined) [US20250289799, Example 41] ; field requested: IC50
// result 1.26 µM

// query Recorded IC50 for COc1cc(-c2nc(C(F)(F)F)cn2C)ccc1CNc1nc(-c2c(OC)ncnc2C2CC2)ncc1OC(F)F [US20250289799, Example 136] , please?
// result 0.017 µM

// query Item COc1ncnc(C2CC2)c1-c1ncc(OC(C)C)c(N(C)CC2CCN(c3nc(C(F)(F)F)cn3C)CC2)n1 [US20250289799, Example 108] has what recorded IC50?
// result 0.0197 µM
